Data origin: patent US7388017B2

Please provide measured pKi for the entries that follow.
- Target Entity: HCV NS3 protease (Hepatitis C virus genotype 1a, UniProt P27958)
- Construct: more particularly HCV NS3 proteases
- Sequence (P27958 1027-1208): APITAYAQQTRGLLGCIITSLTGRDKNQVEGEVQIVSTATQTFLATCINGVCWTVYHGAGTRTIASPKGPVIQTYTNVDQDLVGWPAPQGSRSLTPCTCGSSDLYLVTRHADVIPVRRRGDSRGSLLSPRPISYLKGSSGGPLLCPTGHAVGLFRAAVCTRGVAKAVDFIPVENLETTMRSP
- Assay Method Text: Enzyme inhibition of HCV NS3 serine protease (cleavage of peptide substrate / EDVV AbuC-p-nitroanilide, with or without NS4A)
- Format: biochemical
- Condition Summary: Enzyme inhibition data; Ki from rate vs [inhibitor] plots, Morrison tight binding competitive inhibition fit; 30 C, pH 7.8; read-out: Ki
pKi: −log10 of the molar value. Starred links: 1 amine or outer side, 2 acyl side, 3 side chain; linkers in the order of their positions; H or OH if unused. Non-standard residues stand in square brackets, D forms with d. Residues, ends and D or L forms follow the SMILES beside them. Groups on a side chain read outwards from the residue. *: point of attachment. X19 = O=[N+]([O-])c1cc(N*)ccc1N1CCCCC1; CH2(1-naphthyl) = c1ccc2c(C*)cccc2c1; Benzyl(3,4-Cl2) = Clc1ccc(C*)cc1Cl; Pyrazinecarbonyl = O=C(c1cnccn1)*; Hyp = O=C(O)[CH]1C[CH](O)CN1; X25 = c1ccc(-c2nc(C*)no2)cc1; X5 = c1ccc(Oc2cccc(C*)c2)cc1; Nicotinoyl = O=C(c1cccnc1)*; X20 = FC(F)(F)c1cccc(C*)c1; Abu = CC[CH](N)C(=O)O; X34 = N#Cc1cccc(N*)c1; CO = O=C([*:1])[*:2]; Bn = c1ccc(C*)cc1

Requested field: pKi. Item: CCC(C=O)NC(=O)C1CC(OCc2cccc(C(F)(F)F)c2)CN1C(=O)C(NC(=O)C(NC(=O)c1cnccn1)C(C)C)C(C)C (stereo not shown) [Compound 16] (Pyrazinecarbonyl-VV[Hyp](X20)[Abu]-aldehyde; configuration not given here)
4.00 to 6.00

Next molecule: CCCCC(C(=O)O)C(=O)NC(C(=O)N1CC(OCc2ccccc2)CC1C(=O)NC(C=O)CC)C(C)C (stereo not shown)
< 4.00

Now consider CCC(C=O)NC(=O)C1CC(OCc2noc(-c3ccccc3)n2)CN1C(=O)C(NC(=O)C(NC(=O)c1cnccn1)C(C)C)C(C)C (stereo not shown) [Compound 3] (Pyrazinecarbonyl-VV[Hyp](X25)[Abu]-aldehyde; configuration not given here) and answer again.
4.00 to 6.00

Please answer likewise for CCC(C=O)NC(=O)C1CC(OCc2ccccc2)CN1C(=O)C(NC(=O)C(NC(=O)c1cnccn1)C(C)OCc1ccccc1)C(C)C (stereo not shown) [Compound 142] (Pyrazinecarbonyl-T(Bn)V[Hyp](Bn)[Abu]-aldehyde; configuration not given here)
4.00 to 6.00

Another molecule to check: CCC(C=O)NC(=O)C1CC(OCc2ccccc2)CN1C(=O)C(NC(=O)c1c2c(nc3ccccc13)CCCC2)C(C)C (stereo not shown)
4.00 to 6.00

Can you check CCC(C=O)NC(=O)C1CC(OCc2cccc(Oc3ccccc3)c2)CN1C(=O)C(NC(=O)C(NC(=O)c1cnccn1)C(C)C)C(C)C (stereo not shown) [Compound 1] (Pyrazinecarbonyl-VV[Hyp](X5)[Abu]-aldehyde; configuration not given here) next?
4.00 to 6.00

Follow-up entry: CCOP(=O)(OCC)C(CC)NC(=O)C1CC(OCc2ccccc2)CN1C(=O)C(NC(=O)C(NC(=O)c1cnccn1)C(C)C)C(C)C (stereo not shown)
< 4.00

Quick one: CCC(C=O)NC(=O)C(CC(C)C)NC(=O)C(NC(=O)C(NC(=O)c1cccnc1)C(C)C)C(C)C (stereo not shown) [Compound 94] (Nicotinoyl-VVL[Abu]-aldehyde; configuration not given here)
4.00 to 6.00

Now the molecule CCC(C=O)NC(=O)C1CC(NC(=O)c2ccccc2)CN1C(=O)C(NC(=O)C(NC(=O)c1cnccn1)C(C)C)C(C)C (stereo not shown)
4.00 to 6.00

Next molecule: CCC(C=O)NC(=O)C1CC(OCc2cccc3ccccc23)CN1C(=O)C(NC(=O)C(NC(=O)c1cnccn1)C(C)C)C(C)C (stereo not shown) [Compound 26] (Pyrazinecarbonyl-VV[Hyp](CH2(1-naphthyl))[Abu]-aldehyde; configuration not given here)
4.00 to 6.00

Could you do the same for CCC(C=O)NC(=O)C1CC(OC(=O)Nc2ccc(N3CCCCC3)c([N+](=O)[O-])c2)CN1C(=O)C(NC(=O)C(NC(=O)c1cnccn1)C(C)C)C(C)C (stereo not shown) [Compound 34] (Pyrazinecarbonyl-VV[Hyp]([CO-X19])[Abu]-aldehyde; configuration not given here) , please?
4.00 to 6.00

Then CCC(C=O)NC(=O)C1CC(OCc2ccc(Cl)c(Cl)c2)CN1C(=O)C(NC(=O)C(NC(=O)c1cnccn1)C(C)C)C(C)C (stereo not shown) [Compound 10] (Pyrazinecarbonyl-VV[Hyp](Benzyl(3,4-Cl2))[Abu]-aldehyde; configuration not given here) ?
4.00 to 6.00

Repeat for the following molecule: CCC(C=O)NC(=O)C1CC(NS(=O)(=O)Cc2ccccc2)CN1C(=O)C(NC(=O)C(NC(=O)c1cnccn1)C(C)C)C(C)C (stereo not shown)
4.00 to 6.00

Next: CCC(C=O)NC(=O)C1CC(OC(=O)Nc2cccc(C#N)c2)CN1C(=O)C(NC(=O)C(NC(=O)c1cnccn1)C(C)C)C(C)C (stereo not shown) [Compound 38] (Pyrazinecarbonyl-VV[Hyp]([CO-X34])[Abu]-aldehyde; configuration not given here)
4.00 to 6.00

Lookup CCC(NC(=O)C(CC(C)C)NC(=O)C(NC(=O)C(NC(=O)c1cnccn1)C(C)C)C(C)C)C(=O)C(=O)NCc1ccccc1 (stereo not shown)
4.00 to 6.00

// same read-out, input: CCC(C=O)NC(=O)C1CC(OCc2ccccc2)CN1C(=O)C(NC(=O)c1c(-c2c(Cl)cccc2Cl)noc1C)C(C)C (stereo not shown)
< 4.00
